# system: D2 dopamine receptor (D2R) (Homo sapiens, UniProt P14416)
# Sequence (P14416 whole entry): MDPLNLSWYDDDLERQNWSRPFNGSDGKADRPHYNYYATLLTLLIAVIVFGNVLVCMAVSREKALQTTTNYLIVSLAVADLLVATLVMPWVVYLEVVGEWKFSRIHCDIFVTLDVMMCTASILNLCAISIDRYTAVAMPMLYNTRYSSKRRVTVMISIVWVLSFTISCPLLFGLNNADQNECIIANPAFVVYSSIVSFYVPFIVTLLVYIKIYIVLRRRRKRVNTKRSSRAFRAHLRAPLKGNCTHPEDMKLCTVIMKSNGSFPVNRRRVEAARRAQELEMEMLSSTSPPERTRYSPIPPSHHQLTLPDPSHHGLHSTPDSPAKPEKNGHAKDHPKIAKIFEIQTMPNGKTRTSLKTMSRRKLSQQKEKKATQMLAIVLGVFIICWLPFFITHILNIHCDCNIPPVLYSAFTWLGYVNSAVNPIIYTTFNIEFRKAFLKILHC
# assayProtocol: cell-based
quantityKind: pEC50
Note on pEC50: it is the negative log10 of concentration, concentration in mol/L.

Input line: Fill in the blank: the reported pEC50 of Cc1cc2c(N3CCN(CCCCOc4ccc5c(c4)NC(=O)CC5)CC3)cccc2[nH]1 [compound 6] is ____.
Output line: 9.31

====

# system: D2 I184A^EL2 mutant (Homo sapiens, UniProt P14416, I184A)
# Sequence (P14416 whole entry I184A): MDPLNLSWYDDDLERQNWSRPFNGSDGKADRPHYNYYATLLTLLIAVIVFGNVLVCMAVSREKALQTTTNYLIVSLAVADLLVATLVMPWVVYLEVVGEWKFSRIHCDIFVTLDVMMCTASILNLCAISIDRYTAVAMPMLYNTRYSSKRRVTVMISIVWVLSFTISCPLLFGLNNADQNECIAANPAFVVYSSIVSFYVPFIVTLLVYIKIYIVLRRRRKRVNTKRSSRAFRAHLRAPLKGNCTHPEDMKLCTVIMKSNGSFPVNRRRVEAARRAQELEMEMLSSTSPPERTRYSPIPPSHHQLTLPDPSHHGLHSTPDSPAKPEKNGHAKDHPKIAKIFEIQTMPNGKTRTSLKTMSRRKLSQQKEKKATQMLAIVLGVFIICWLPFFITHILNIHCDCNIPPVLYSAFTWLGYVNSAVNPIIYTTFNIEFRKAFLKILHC
# assayProtocol: cell-based
quantityKind: pEC50
Note on pEC50: it is the negative log10 of concentration, concentration in mol/L.

Input line: Fill in the blank: the reported pEC50 of Cc1cc2c(N3CCN(CCCCOc4ccc5c(c4)NC(=O)CC5)CC3)cccc2[nH]1 [compound 6] is ____.
Output line: 8.57
